Provenance of the data: ChEMBL document CHEMBL1201862

A collection of compounds and their measured GI50
Tested on: HT-29
Assay: NCI tumour cell line growth inhibition, 48 h
Active and inactive are the calls of the source. Rule as the data show it: active = GI50 up to about 1.1 µM and inactive = higher.
Quantity Name: GI50

>>> df
                         chemical_structure  quantity_name          measurement
0  O=C(/C=C/c1cccc([N+](=O)[O-])c1)c1cccnc1           GI50   20.2 µM (inactive)
1       CCCCOCCOC1=CC(=O)c2c(O)ccc(O)c2C1=O           GI50   1.67 µM (inactive)
2    CC1=C(C)C(=O)c2c(cc3ccc4ccccc4n23)C1=O           GI50  > 100 µM (inactive)
3     COc1ccc(C(=O)O)c2c(=O)c3cccnc3[nH]c12           GI50  > 100 µM (inactive)
4   Cc1occc1C(=S)Nc1ccc(Cl)c(/C=N/OC(C)C)c1           GI50   19.3 µM (inactive)
5                  CC(C)(C)C(=O)Nc1ccccc1Br           GI50  > 100 µM (inactive)
